- target_of_assay: T1, CTLA4-Fc (Fitzgerald, #30R-CD152) (human, UniProt P16410 38-152)
- T1 construct: Bought; also called human CTLA-4 (Fitzgerald); biotinylated-CTLA4; not shown: Fc part of the bought fusion, not described
- experimental_details: SPR (Biacore), immobilised CTLA4-Fc
Record form. Attribute: kon. Fill in for each entry.
Give bare numbers, in M⁻¹ s⁻¹.

* CD86 mutant 1045 (ligand, Variant of the CD86 extracellular domain) APLKIQAYFNETADLPCQFANSQNLTLSELVVFWQDQENLVLNEVYLGKEKFDSVDSKYMGRTSFDSDSWTLRLHNLQIKDKGLYQCIIHHKKPTGLVKIHEMNSELSVLA | 940000
* human wild-type CD86 (monomeric soluble extracellular domain) (ligand, also called wild type protein) APLKIQAYFNETADLPCQFANSQNQSLSELVVFWQDQENLVLNEVYLGKEKFDSVHSKYMGRTSFDSDSWTLRLHNLQIKDKGLYQCIIHHKKPTGMIRIHQMNSELSVLA | 460000
* CD86 mutant 1042 (ligand, Variant of the CD86 extracellular domain) APLKIQAYFNETADLPCQFANSQNLSLSELVVFWQDQENLVLNEVYLGKEIFDSVSSKYMGRTSFDSDSWTLRLHNLQIKDKGIYQCIIHHKKPSGMVKIHQMDSELSVLA | 440000

May I ask what kon has been recorded for CD86 mutant 1043 (ligand, Variant of the CD86 extracellular domain) APLKIQAYFNETADLPCQFANSQNLSLSELVVFWQDQENLVLNEVYLGKEKFDSVDSKYMGRTSFDSDSWTLRLHNLQIKDKGIYQCIIHHKKPTGMIKIHEMNSELSVLA ?
1.1e+06
